Test: RAM signaling pathway blockade in yeast – S. cerevisiae, Pdr1DBD-CYC8 efflux-inhibited sensitized strain, primary screen (AID 1298);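 further: higher means more yeast growth rescued from 5-FOA killing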
Conditions: S. cerevisiae cbk1-as DSE1-URA3 strain, 5-FOA growth OD615, 2 d; at 50 µM; active compounds read high
Assign TRUE to entries whose RAM network inhibition meets or exceeds 4%; assign FALSE to the rest.

# MOLECULE, GROUP LABEL
measured = [
    ("CCNC(=O)CN(c1ccc(CC)cc1)S(C)(=O)=O", "FALSE"),
    ("O=S(=O)(Cc1ccccc1)N1CCn2c(nc3ccccc32)C1", "TRUE"),
    ("COc1cc(CN2CCN(c3cccc(C)c3C)CC2)cc(Br)c1O", "FALSE"),
]

(Q) Hi, just wondering whether COC(=O)c1cc(NC2c3ccccc3C(=O)N2c2cccnc2)cc(C(=O)OC)c1 (configuration not stated) shows RAM network inhibition of 4% or higher.
(A) TRUE

(Q) Hi, just wondering whether O=C(CSCc1ccc(Cl)cc1)c1ccco1 shows RAM network inhibition of 4% or higher.
(A) FALSE

(Q) Hi, just wondering whether Cc1nc2sc(C(c3ccc(Cl)cc3)N3CCN(CCO)CC3)c(O)n2n1 (configuration not stated) shows RAM network inhibition of 4% or higher.
(A) FALSE

(Q) Hi, just wondering whether COc1ccc(N2Cc3cccc(C(=O)N4CCN(C(=O)c5ccco5)CC4)c3C2=O)cc1 shows RAM network inhibition of 4% or higher.
(A) FALSE

(Q) Hi, just wondering whether COc1ccc(C2/C(=C(/O)c3ccc(F)cc3)C(=O)C(=O)N2CCCN(C)C)cc1 (configuration not stated) shows RAM network inhibition of 4% or higher.
(A) FALSE

(Q) Hi, just wondering whether O=C(NCc1ccc2c(c1)OCO2)c1ccc(NC(=O)C2CCCO2)cc1 (configuration not stated) shows RAM network inhibition of 4% or higher.
(A) TRUE

(Q) Hi, just wondering whether COc1ccc(OC)c2c(C)cc(NCCN3CCOCC3)nc12 shows RAM network inhibition of 4% or higher.
(A) FALSE

(Q) Hi, just wondering whether c1ccc(-c2cnnc(N3CCCCC3)n2)cc1 shows RAM network inhibition of 4% or higher.
(A) TRUE

(Q) Hi, just wondering whether Cc1nc2c3ccccc3n(CC(=O)c3ccc(F)cc3)c(=O)n2n1 shows RAM network inhibition of 4% or higher.
(A) FALSE

(Q) Hi, just wondering whether CC(C)CCNC(=O)Cn1cc2c(n1)CCCCC2 shows RAM network inhibition of 4% or higher.
(A) FALSE

(Q) Hi, just wondering whether CCOc1ccc(-n2c(Cc3cc(=O)[nH]c(=O)[nH]3)nnc2SCC(=O)OC)cc1 shows RAM network inhibition of 4% or higher.
(A) FALSE

(Q) Hi, just wondering whether COc1ccc(S(=O)(=O)NCc2ccccc2Cl)cc1OC shows RAM network inhibition of 4% or higher.
(A) FALSE

(Q) Hi, just wondering whether CCOC(=O)N1CCC(N2C(=O)c3ccc(C(=O)NCc4ccc(F)cc4)cc3C2=O)CC1 shows RAM network inhibition of 4% or higher.
(A) TRUE

(Q) Hi, just wondering whether O=C(OCCNc1ncc(C(F)(F)F)cc1Cl)c1ccc(S(=O)(=O)N2CCOCC2)cc1 shows RAM network inhibition of 4% or higher.
(A) TRUE

(Q) Hi, just wondering whether O=C(c1ccc(-c2ccccc2)cc1)N1CCCC1 shows RAM network inhibition of 4% or higher.
(A) TRUE

(Q) Hi, just wondering whether Cc1c(NC(=O)OCCSc2nc(N(C)C)nc(N(C)C)n2)sc(=S)n1C shows RAM network inhibition of 4% or higher.
(A) FALSE

(Q) Hi, just wondering whether COc1ccc(CN2CCN(C(=O)c3ccco3)CC2)cc1OCc1ccccc1 shows RAM network inhibition of 4% or higher.
(A) FALSE

(Q) Hi, just wondering whether CCOC(=O)C1CCN(C(c2cccs2)c2sc3nc(C)nn3c2O)CC1 (configuration not stated) shows RAM network inhibition of 4% or higher.
(A) FALSE

(Q) Hi, just wondering whether O=C(CCSc1ccccc1)NCCSc1ccccn1 shows RAM network inhibition of 4% or higher.
(A) FALSE

Where do the numbers come from? From PubChem BioAssay.
